Assayed System: Transient receptor potential cation channel subfamily A member 1 (Rattus norvegicus, UniProt Q6RI86)
Sequence (Q6RI86 whole entry): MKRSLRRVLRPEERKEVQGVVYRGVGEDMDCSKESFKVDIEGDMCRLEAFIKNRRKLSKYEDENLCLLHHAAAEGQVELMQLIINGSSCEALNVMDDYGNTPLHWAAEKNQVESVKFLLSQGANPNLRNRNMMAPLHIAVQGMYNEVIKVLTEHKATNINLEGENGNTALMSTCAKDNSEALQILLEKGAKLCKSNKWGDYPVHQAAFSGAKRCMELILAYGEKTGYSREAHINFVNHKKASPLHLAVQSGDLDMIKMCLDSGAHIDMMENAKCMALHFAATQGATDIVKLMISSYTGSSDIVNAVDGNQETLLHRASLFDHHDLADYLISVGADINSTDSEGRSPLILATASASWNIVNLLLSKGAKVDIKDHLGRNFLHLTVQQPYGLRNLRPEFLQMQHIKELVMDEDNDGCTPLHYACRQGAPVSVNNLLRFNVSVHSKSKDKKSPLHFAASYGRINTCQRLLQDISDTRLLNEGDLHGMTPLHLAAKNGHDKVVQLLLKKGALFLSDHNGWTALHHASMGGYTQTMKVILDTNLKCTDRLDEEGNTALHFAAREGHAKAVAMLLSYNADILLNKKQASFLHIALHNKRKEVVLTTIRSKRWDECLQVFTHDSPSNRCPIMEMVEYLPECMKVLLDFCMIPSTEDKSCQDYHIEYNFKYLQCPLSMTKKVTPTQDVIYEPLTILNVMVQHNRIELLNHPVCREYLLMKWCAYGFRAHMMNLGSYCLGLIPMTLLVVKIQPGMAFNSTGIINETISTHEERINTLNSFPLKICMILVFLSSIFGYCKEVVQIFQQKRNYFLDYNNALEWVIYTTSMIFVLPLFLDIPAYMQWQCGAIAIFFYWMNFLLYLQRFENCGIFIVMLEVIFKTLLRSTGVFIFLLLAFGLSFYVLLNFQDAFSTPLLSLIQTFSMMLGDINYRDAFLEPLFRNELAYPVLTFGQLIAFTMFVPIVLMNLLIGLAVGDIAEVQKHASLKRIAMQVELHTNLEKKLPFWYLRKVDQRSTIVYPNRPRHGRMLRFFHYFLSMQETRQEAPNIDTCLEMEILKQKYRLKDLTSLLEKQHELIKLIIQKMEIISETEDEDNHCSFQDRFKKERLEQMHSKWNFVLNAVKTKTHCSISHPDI
Test Protocol: Antagonist activity against rat recombinant TRPA1 expressed in HEK293 cells assessed as inhibition of AITC-induced Ca2+ influx pre-treated 5 mins before capsaicin addition by Fluo-4 dye based assay
Parameter: pIC50
// pIC50 here means minus log10 of the molar concentration (mol/L)

-- ask pIC50 for `CCCCCC[C@@H](O)C/C=C\CCCCCCCCn1nnc(-c2ccc(O)c(OC)c2)n1` ?
-- reply 4.95

###

Assayed System: Transient receptor potential cation channel subfamily A member 1 (Rattus norvegicus) (UniProt Q6RI86)
Sequence (Q6RI86 whole entry): as above
Test Protocol: Agonist activity at rat recombinant TRPA1 expressed in HEK293 cells assessed as Ca2+ influx by Fluo-4 dye based assay relative to 100 uM AITC
Format: cell-based
# key: entry, value: Efficacy
Please reply with the bare figure in % and do not write the unit itself.

Illustrative cases are given below, each with its answer.
-- ask Efficacy for `CCCCCC[C@@H](O)C/C=C\CCCCCCCCn1nnc(-c2ccc(O)c(OC)c2)n1` ?
-- reply 62.6

-- ask Efficacy for `C=CCN=C=S` ?
-- reply 38.9

-- ask Efficacy for `CCCCCCCCCn1nnc(-c2ccc(O)c(OC)c2)n1` ?
-- reply 65.9

-- ask Efficacy for `CCCCCC[C@H](C/C=C\CCCCCCCCn1nnc(-c2ccc(O)c(OC)c2)n1)OC(=O)Cc1ccccc1` ?
-- reply 72.6

The record that follows has no Efficacy shown yet.
-- ask Efficacy for `CCCCCCCC/C=C\CCCCCCCCn1nnc(-c2ccc(O)c(OC)c2)n1` ?
-- reply 83.1
